Reported Remaining Percentage (%) 16 h is given for each of the following compounds.
- PROTOCOL_DETAILS: Test 4: stability of compounds in human liver microsomes
- Type: in vitro ADME
- PROTOCOL_CONDITIONS: 16 h; 0.5 mg/mL liver microsomal protein, 1 mM NADPH, 37° C., N=1
- Procedure: Test 4: Evaluation of Stability of Compounds in Human Liver Microsomes Assay system: the metabolic stability of the compounds in the present invention were determined by employing a mixture of male and female liver microsomes (Jiangyin Qi Biotechnology Co., Ltd.) and 1 mM NADPH. Samples were analyzed by a mass spectrometer. […]
MEASURED_ENDPOINT: Remaining Percentage (%) 16 h

[[record]]
smiles_representation = "[2H]C([2H])([2H])N(CCN(C)c1cc(OC)c(Nc2nccc(-c3cn(C([2H])([2H])[2H])c4ccccc34)n2)cc1NC(=O)C=C)C([2H])([2H])[2H]"
observed = 80

[[record]]
smiles_representation = "[2H]C([2H])([2H])Oc1cc(N(C)CCN(C)C)c(NC(=O)C=C)cc1Nc1nccc(-c2cn(C)c3ccccc23)n1"
observed = 81

[[record]]
smiles_representation = "[2H]C([2H])([2H])n1cc(-c2ccnc(Nc3cc(NC(=O)C=C)c(N(C)CCN(C)C)cc3OC)n2)c2ccccc21"
observed = 82

[[record]]
smiles_representation = "[2H]C([2H])([2H])N(CCN(C)c1cc(OC)c(Nc2nccc(-c3cn(C)c4ccccc34)n2)cc1NC(=O)C=C)C([2H])([2H])[2H]"
observed = 90


###

Reported tumor size 0 d is given for each of the following compounds.
- Test system: NCI-H1975
- PROTOCOL_DETAILS: Test 5: effect in nude mice implanted with NCI-H1975
- Type: in vivo
- PROTOCOL_CONDITIONS: Dose 3.6 μg/g once a day, 0 d
MEASURED_ENDPOINT: tumor size 0 d (mm)

[[record]]
compound = "C=CC(=O)Nc1cc(Nc2nccc(-c3cn(C)c4ccccc34)n2)c(OC)cc1N(C)CCN(C)C.CS(=O)(=O)O [AZD9291, reference compound]"
target_or_test_system = "NCI-H1975"
measured_endpoint = "tumor size 0 d"
observed = 13

[[record]]
compound = "[2H]C([2H])([2H])n1cc(-c2ccnc(Nc3cc(NC(=O)C=C)c(N(C)CCN(C)C)cc3OC)n2)c2ccccc21"
target_or_test_system = "NCI-H1975"
measured_endpoint = "tumor size 0 d"
observed = 14

[[record]]
compound = "[2H]C([2H])([2H])N(CCN(C)C)c1cc(OC)c(Nc2nccc(-c3cn(C)c4ccccc34)n2)cc1NC(=O)C=C"
target_or_test_system = "NCI-H1975"
measured_endpoint = "tumor size 0 d"
observed = 11

[[record]]
compound = "[2H]C([2H])([2H])N(CCN(C)c1cc(OC)c(Nc2nccc(-c3cn(C)c4ccccc34)n2)cc1NC(=O)C=C)C([2H])([2H])[2H]"
target_or_test_system = "NCI-H1975"
measured_endpoint = "tumor size 0 d"
observed = 12

[[record]]
compound = "[2H]C([2H])([2H])N(C)CCN(C)c1cc(OC)c(Nc2nccc(-c3cn(C)c4ccccc34)n2)cc1NC(=O)C=C"
target_or_test_system = "NCI-H1975"
measured_endpoint = "tumor size 0 d"
observed = 12

[[record]]
compound = "[2H]C([2H])([2H])Oc1cc(N(C)CCN(C)C)c(NC(=O)C=C)cc1Nc1nccc(-c2cn(C)c3ccccc23)n1"
target_or_test_system = "NCI-H1975"
measured_endpoint = "tumor size 0 d"
observed = 13


###

- PROTOCOL_DETAILS: Test 4: stability of compounds in human liver microsomes
- Type: in vitro ADME
- PROTOCOL_CONDITIONS: 16 h; 0.5 mg/mL liver microsomal protein, 1 mM NADPH, 37° C., N=1
Reported Remaining Percentage (%) 16 h is given for each of the following molecules.
MEASURED_ENDPOINT: Remaining Percentage (%) 16 h

[[record]]
molecule = "C=CC(=O)Nc1cc(Nc2nccc(-c3cn(C)c4ccccc34)n2)c(OC)cc1N(C)CCN(C)C.CS(=O)(=O)O [AZD9291, reference compound]"
observed = "61%"

[[record]]
molecule = "[2H]C([2H])([2H])N(C)CCN(C)c1cc(OC)c(Nc2nccc(-c3cn(C)c4ccccc34)n2)cc1NC(=O)C=C"
observed = "86%"

[[record]]
molecule = "[2H]C([2H])([2H])N(CCN(C)C)c1cc(OC)c(Nc2nccc(-c3cn(C)c4ccccc34)n2)cc1NC(=O)C=C"
observed = "84%"


###

Reported tumor size 0 d is given for each of the following compounds.
- Tested on: NCI-H1975
- PROTOCOL_DETAILS: Test 5: effect in nude mice implanted with NCI-H1975
- Type: in vivo
- PROTOCOL_CONDITIONS: Dose 7.2 μg/g once a day, 0 d
MEASURED_ENDPOINT: tumor size 0 d (mm)

[[record]]
compound = "[2H]C([2H])([2H])N(CCN(C)C)c1cc(OC)c(Nc2nccc(-c3cn(C)c4ccccc34)n2)cc1NC(=O)C=C"
target_or_test_system = "NCI-H1975"
measured_endpoint = "tumor size 0 d"
observed = 14

[[record]]
compound = "C=CC(=O)Nc1cc(Nc2nccc(-c3cn(C)c4ccccc34)n2)c(OC)cc1N(C)CCN(C)C.CS(=O)(=O)O [AZD9291, reference compound]"
target_or_test_system = "NCI-H1975"
measured_endpoint = "tumor size 0 d"
observed = 12

[[record]]
compound = "[2H]C([2H])([2H])n1cc(-c2ccnc(Nc3cc(NC(=O)C=C)c(N(C)CCN(C)C)cc3OC)n2)c2ccccc21"
target_or_test_system = "NCI-H1975"
measured_endpoint = "tumor size 0 d"
observed = 13

[[record]]
compound = "[2H]C([2H])([2H])N(C)CCN(C)c1cc(OC)c(Nc2nccc(-c3cn(C)c4ccccc34)n2)cc1NC(=O)C=C"
target_or_test_system = "NCI-H1975"
measured_endpoint = "tumor size 0 d"
observed = 13

[[record]]
compound = "[2H]C([2H])([2H])Oc1cc(N(C)CCN(C)C)c(NC(=O)C=C)cc1Nc1nccc(-c2cn(C)c3ccccc23)n1"
target_or_test_system = "NCI-H1975"
measured_endpoint = "tumor size 0 d"
observed = 11

[[record]]
compound = "[2H]C([2H])([2H])N(CCN(C)c1cc(OC)c(Nc2nccc(-c3cn(C)c4ccccc34)n2)cc1NC(=O)C=C)C([2H])([2H])[2H]"
target_or_test_system = "NCI-H1975"
measured_endpoint = "tumor size 0 d"
observed = 12


###

Reported Remaining Percentage (%) 32 h is given for each of the following compounds.
- PROTOCOL_DETAILS: Test 4: stability of compounds in human liver microsomes
- Format: in vitro ADME
- PROTOCOL_CONDITIONS: 32 h; 0.5 mg/mL liver microsomal protein, 1 mM NADPH, 37° C., N=1
MEASURED_ENDPOINT: Remaining Percentage (%) 32 h

[[record]]
compound = "[2H]C([2H])([2H])N(C)CCN(C)c1cc(OC)c(Nc2nccc(-c3cn(C)c4ccccc34)n2)cc1NC(=O)C=C [Embodiment 1B]"
observed = 70

[[record]]
compound = "[2H]C([2H])([2H])N(CCN(C)c1cc(OC)c(Nc2nccc(-c3cn(C)c4ccccc34)n2)cc1NC(=O)C=C)C([2H])([2H])[2H] [Embodiment 2B]"
observed = 75

[[record]]
compound = "[2H]C([2H])([2H])n1cc(-c2ccnc(Nc3cc(NC(=O)C=C)c(N(C)CCN(C)C)cc3OC)n2)c2ccccc21 [Embodiment 3B]"
observed = 64

[[record]]
compound = "[2H]C([2H])([2H])N(CCN(C)C)c1cc(OC)c(Nc2nccc(-c3cn(C)c4ccccc34)n2)cc1NC(=O)C=C [Embodiment 5B]"
observed = 69

[[record]]
compound = "C=CC(=O)Nc1cc(Nc2nccc(-c3cn(C)c4ccccc34)n2)c(OC)cc1N(C)CCN(C)C.CS(=O)(=O)O [AZD9291, reference compound]"
observed = 34

[[record]]
compound = "[2H]C([2H])([2H])N(CCN(C)c1cc(OC)c(Nc2nccc(-c3cn(C([2H])([2H])[2H])c4ccccc34)n2)cc1NC(=O)C=C)C([2H])([2H])[2H] [Embodiment 6B]"
observed = 65

[[record]]
compound = "[2H]C([2H])([2H])Oc1cc(N(C)CCN(C)C)c(NC(=O)C=C)cc1Nc1nccc(-c2cn(C)c3ccccc23)n1 [Embodiment 4B]"
observed = 63


###

- PROTOCOL_DETAILS: Test 4: stability of compounds in human liver microsomes
- Type: in vitro ADME
- PROTOCOL_CONDITIONS: 48 h; 0.5 mg/mL liver microsomal protein, 1 mM NADPH, 37° C., N=1
MEASURED_ENDPOINT: Remaining Percentage (%) 48 h

[[record]]
compound = "[2H]C([2H])([2H])N(CCN(C)c1cc(OC)c(Nc2nccc(-c3cn(C([2H])([2H])[2H])c4ccccc34)n2)cc1NC(=O)C=C)C([2H])([2H])[2H] [Embodiment 6B]"
output_unit = "%"
observed = 58

[[record]]
compound = "[2H]C([2H])([2H])N(C)CCN(C)c1cc(OC)c(Nc2nccc(-c3cn(C)c4ccccc34)n2)cc1NC(=O)C=C [Embodiment 1B]"
output_unit = "%"
observed = 67

[[record]]
compound = "C=CC(=O)Nc1cc(Nc2nccc(-c3cn(C)c4ccccc34)n2)c(OC)cc1N(C)CCN(C)C.CS(=O)(=O)O [AZD9291, reference compound]"
output_unit = "%"
observed = 14

[[record]]
compound = "[2H]C([2H])([2H])n1cc(-c2ccnc(Nc3cc(NC(=O)C=C)c(N(C)CCN(C)C)cc3OC)n2)c2ccccc21 [Embodiment 3B]"
output_unit = "%"
observed = 55

[[record]]
compound = "[2H]C([2H])([2H])Oc1cc(N(C)CCN(C)C)c(NC(=O)C=C)cc1Nc1nccc(-c2cn(C)c3ccccc23)n1 [Embodiment 4B]"
output_unit = "%"
observed = 51

[[record]]
compound = "[2H]C([2H])([2H])N(CCN(C)c1cc(OC)c(Nc2nccc(-c3cn(C)c4ccccc34)n2)cc1NC(=O)C=C)C([2H])([2H])[2H] [Embodiment 2B]"
output_unit = "%"
observed = 81

[[record]]
compound = "[2H]C([2H])([2H])N(CCN(C)C)c1cc(OC)c(Nc2nccc(-c3cn(C)c4ccccc34)n2)cc1NC(=O)C=C [Embodiment 5B]"
output_unit = "%"
observed = 66

